Entry source: patent US20220387487A1

Tested on: FMC63
Sequence (as listed by the source): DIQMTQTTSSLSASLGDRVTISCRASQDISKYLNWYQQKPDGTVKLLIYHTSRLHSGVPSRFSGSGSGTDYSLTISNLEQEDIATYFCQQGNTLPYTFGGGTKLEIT
Sequence (as listed by the source): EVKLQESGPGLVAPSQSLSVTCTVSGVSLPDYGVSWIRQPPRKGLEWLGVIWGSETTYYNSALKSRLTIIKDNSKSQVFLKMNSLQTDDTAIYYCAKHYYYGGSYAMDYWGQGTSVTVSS
Experiment: CD19 variant binding to anti-CD19 antibody FMC63 (score)
Conditions: Table 1A, CD19 single mutants (positions of SEQ ID NO:2)
observation type: FMC63 Binding Score
Give a plain numeric answer without units written out.

Data request: Entry W262H: CD19 variant (protein) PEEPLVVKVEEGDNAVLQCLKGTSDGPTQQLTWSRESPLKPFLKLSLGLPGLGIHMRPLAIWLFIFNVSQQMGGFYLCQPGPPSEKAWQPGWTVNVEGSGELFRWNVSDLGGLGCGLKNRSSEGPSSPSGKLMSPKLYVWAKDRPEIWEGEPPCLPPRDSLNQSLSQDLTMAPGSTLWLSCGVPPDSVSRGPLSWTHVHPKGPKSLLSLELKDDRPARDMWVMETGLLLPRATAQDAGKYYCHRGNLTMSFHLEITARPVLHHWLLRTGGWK needs its FMC63 Binding Score filled in; supply it.
Data returned: 6.7
